molecular target: PHL (Photorhabdus asymbiotica, UniProt C7BLE4); assay: Isothermal titration calorimetry of PHL with ligands; format: binding; conditions: ITC at 25 °C, two independent measurements
Sequence (C7BLE4 entry or part of it): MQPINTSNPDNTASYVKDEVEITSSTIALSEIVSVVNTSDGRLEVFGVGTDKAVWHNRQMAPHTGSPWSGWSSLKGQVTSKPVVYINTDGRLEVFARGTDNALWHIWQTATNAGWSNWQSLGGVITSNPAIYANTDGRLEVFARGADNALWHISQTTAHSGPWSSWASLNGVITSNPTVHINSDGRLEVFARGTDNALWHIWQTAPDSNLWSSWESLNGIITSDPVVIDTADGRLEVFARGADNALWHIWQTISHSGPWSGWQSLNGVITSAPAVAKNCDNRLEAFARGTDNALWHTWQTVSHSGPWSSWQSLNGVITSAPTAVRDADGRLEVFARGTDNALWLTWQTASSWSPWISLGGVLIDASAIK
We begin with a simple list: items and their reported n (stoichiometry).

[
  {
    "compound": "C[C@@H]1O[C@@H](CCn2cc(COCC(COCc3cn(CC[C@@H]4O[C@@H](C)[C@@H](O)[C@@H](O)[C@@H]4O)nn3)(COCc3cn(CC[C@@H]4O[C@@H](C)[C@@H](O)[C@@H](O)[C@@H]4O)nn3)COCC(COCc3cn(CC[C@@H]4O[C@@H](C)[C@@H](O)[C@@H](O)[C@@H]4O)nn3)(COCc3cn(CC[C@@H]4O[C@@H](C)[C@@H](O)[C@@H](O)[C@@H]4O)nn3)COCc3cn(CC[C@@H]4O[C@@H](C)[C@@H](O)[C@@H](O)[C@@H]4O)nn3)nn2)[C@@H](O)[C@H](O)[C@@H]1O",
    "n (stoichiometry)": 2.0
  },
  {
    "compound": "CO[C@@H]1O[C@@H](C)[C@@H](O)[C@@H](O)[C@@H]1O [α-Me-Fuc, methyl α-L-fucopyranoside, reference compound]",
    "n (stoichiometry)": 2.9
  },
  {
    "compound": "C[C@@H]1O[C@@H](CCn2cc(COCC(COCc3cn(CC[C@@H]4O[C@@H](C)[C@@H](O)[C@@H](O)[C@@H]4O)nn3)(COCc3cn(CC[C@@H]4O[C@@H](C)[C@@H](O)[C@@H](O)[C@@H]4O)nn3)COCc3cn(CC[C@@H]4O[C@@H](C)[C@@H](O)[C@@H](O)[C@@H]4O)nn3)nn2)[C@@H](O)[C@H](O)[C@@H]1O",
    "n (stoichiometry)": 3.0
  },
  {
    "compound": "C[C@@H]1O[C@@H](CCN=[N+]=[N-])[C@@H](O)[C@H](O)[C@@H]1O [Azide 1]",
    "n (stoichiometry)": 4.1
  },
  {
    "compound": "C[C@@H]1OC(CCCCC2O[C@@H](C)[C@@H](O)[C@@H](O)[C@@H]2O)[C@@H](O)[C@H](O)[C@@H]1O (some centres unmarked) [Difucoside 5, 1,4-bis(fucopyranosyl)butane]",
    "n (stoichiometry)": 3.9
  }
]

---

biological target: UniProtKB C7BLE4; assay: Isothermal titration calorimetry of PHL with ligands; type: binding; conditions: ITC at 25 °C
property-measured: −ΔG (kJ/mol)

[
  {
    "compound": "C[C@@H]1OC(CCCCC2O[C@@H](C)[C@@H](O)[C@@H](O)[C@@H]2O)[C@@H](O)[C@H](O)[C@@H]1O (stereo partly drawn) [Difucoside 5, 1,4-bis(fucopyranosyl)butane]",
    "unit-of-measurement": "kJ/mol",
    "endpoint-result": 22.4
  },
  {
    "compound": "C[C@@H]1O[C@@H](CCn2cc(COCC(COCc3cn(CC[C@@H]4O[C@@H](C)[C@@H](O)[C@@H](O)[C@@H]4O)nn3)(COCc3cn(CC[C@@H]4O[C@@H](C)[C@@H](O)[C@@H](O)[C@@H]4O)nn3)COCc3cn(CC[C@@H]4O[C@@H](C)[C@@H](O)[C@@H](O)[C@@H]4O)nn3)nn2)[C@@H](O)[C@H](O)[C@@H]1O",
    "unit-of-measurement": "kJ/mol",
    "endpoint-result": 25.3
  },
  {
    "compound": "C[C@@H]1O[C@@H](CCN=[N+]=[N-])[C@@H](O)[C@H](O)[C@@H]1O [Azide 1]",
    "unit-of-measurement": "kJ/mol",
    "endpoint-result": 22.7
  },
  {
    "compound": "C[C@@H]1O[C@@H](CCn2cc(COCC(COCc3cn(CC[C@@H]4O[C@@H](C)[C@@H](O)[C@@H](O)[C@@H]4O)nn3)(COCc3cn(CC[C@@H]4O[C@@H](C)[C@@H](O)[C@@H](O)[C@@H]4O)nn3)COCC(COCc3cn(CC[C@@H]4O[C@@H](C)[C@@H](O)[C@@H](O)[C@@H]4O)nn3)(COCc3cn(CC[C@@H]4O[C@@H](C)[C@@H](O)[C@@H](O)[C@@H]4O)nn3)COCc3cn(CC[C@@H]4O[C@@H](C)[C@@H](O)[C@@H](O)[C@@H]4O)nn3)nn2)[C@@H](O)[C@H](O)[C@@H]1O",
    "unit-of-measurement": "kJ/mol",
    "endpoint-result": 28.0
  },
  {
    "compound": "CO[C@@H]1O[C@@H](C)[C@@H](O)[C@@H](O)[C@@H]1O [α-Me-Fuc, methyl α-L-fucopyranoside, reference compound]",
    "unit-of-measurement": "kJ/mol",
    "endpoint-result": 20.4
  },
  {
    "compound": "C[C@H](O)[C@@H](O)[C@@H](O)[C@H](O)C=O [L -Fuc, L-fucose, reference compound]",
    "unit-of-measurement": "kJ/mol",
    "endpoint-result": 16.3
  }
]
